Could you please report measured IC50 for the items listed next?
target_or_test_system: Chk1 (Homo sapiens)
Sequence (O14757 whole entry): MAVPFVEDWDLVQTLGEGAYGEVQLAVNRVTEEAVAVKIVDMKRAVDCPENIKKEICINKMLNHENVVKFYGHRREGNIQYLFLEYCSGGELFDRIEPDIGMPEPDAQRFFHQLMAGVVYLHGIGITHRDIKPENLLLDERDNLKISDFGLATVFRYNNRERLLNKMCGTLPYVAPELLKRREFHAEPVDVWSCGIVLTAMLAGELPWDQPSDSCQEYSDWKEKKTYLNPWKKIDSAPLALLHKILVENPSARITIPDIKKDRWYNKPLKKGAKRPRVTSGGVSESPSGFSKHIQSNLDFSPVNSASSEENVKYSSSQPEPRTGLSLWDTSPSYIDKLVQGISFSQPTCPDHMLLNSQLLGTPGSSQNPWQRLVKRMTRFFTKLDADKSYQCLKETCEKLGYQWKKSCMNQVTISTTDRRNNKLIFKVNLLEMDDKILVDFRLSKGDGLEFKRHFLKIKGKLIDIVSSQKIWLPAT
method_notes: Chk1 kinase assay, phosphorylation of Chktide (33P-ATP filtration)
Type: biochemical
run_conditions: Table 3; 0.01 mM ATP; read-out: Chk1 IC50
Give bare numbers, in µM.

Worked examples, 3 compounds total:
Cc1cccc(-c2cc(Nc3ccc(C(N)=O)cc3)nc3ncnn23)c1; 14.9
NC(=O)c1ccc(Nc2cc(-c3ccc4c(c3)OCO4)n3ncnc3n2)cc1; 14.2
CCN(CC)CCNC(=O)c1ccc(Nc2cc(-c3ccc4c(c3)OCO4)n3ncnc3n2)cc1; 1

Hello, I would appreciate it if you could give IC50 for each entry below.
1. CCOC(=O)Cc1ccc(Nc2cc(-c3cccc(F)c3)n3ncnc3n2)cc1
2. CC(=O)Nc1cccc(Nc2cc(-c3cccc(F)c3)n3ncnc3n2)c1
3. CCN(CC)CCNC(=O)c1ccc(Nc2cc(-c3cccc(C)c3)n3ncnc3n2)cc1

[8.84, 26.3, 5.45]

Hello, I would appreciate it if you could give IC50 for each entry below.
1. CCN(CC)CCNC(=O)c1ccc(Nc2cc(-c3ccccc3)n3ncnc3n2)cc1
2. CCN(CC)CCNC(=O)c1ccc(Nc2cc(Cc3ccccc3)n3ncnc3n2)cc1
3. CCN(CC)CCNC(=O)c1ccc(Nc2cc(C(C)C)n3ncnc3n2)cc1
4. Cc1cccc(-c2cc(Nc3ccc(CCO)cc3)nc3ncnn23)c1
5. OCCc1ccc(Nc2cc(-c3cccc(F)c3)n3ncnc3n2)cc1

1. 2.25
2. 15.8
3. 22.9
4. 42.2
5. 9.57

Hello, I would appreciate it if you could give IC50 for each entry below.
1. CCN(CC)CCNC(=O)c1ccc(Nc2cc(Cc3cc(OC)ccc3OC)n3ncnc3n2)cc1
2. CN(C)S(=O)(=O)c1ccc(Nc2cc(-c3cccc(F)c3)n3ncnc3n2)cc1
3. NS(=O)(=O)c1ccc(Nc2cc(-c3cccc(F)c3)n3ncnc3n2)cc1
4. NC(=O)Cc1ccc(Nc2cc(-c3cccc(F)c3)n3ncnc3n2)cc1
5. Cc1cc(Nc2ccc(C(N)=O)cc2)nc2ncnn12
6. Cc1cccc(-c2cc(Nc3ccc(N(C)C)cc3)nc3ncnn23)c1

65.8
12.2
1.54
3.76
6.42
36.8

* * *

Could you please report measured pIC50 for the items listed next?
target_or_test_system: CDK2 enzyme, complexed with cyclin A (Homo sapiens, UniProt P24941)
method_notes: CDK2 cyclin dependent kinase assay, phosphorylation of synthetic peptide […] (33P-ATP filtration)
Format: biochemical
run_conditions: Table 1; 0.1 mM ATP
Answers are plain numbers, as −log10 of the molar value.

NS(=O)(=O)c1ccc(Nc2cc(N3CCOCC3)nc3ncnn23)cc1 [Example 24]; 4.80
NS(=O)(=O)c1ccc(CNc2cc(OC3CCCCC3)nc3ncnn23)cc1 [Example 15]; 4.95
O=C(O)c1ccc(Nc2cc(Cl)nc3ncnn23)cc1 [Example 25]; 4.03
NS(=O)(=O)c1ccc(Nc2cc(Cl)nc3ncnn23)cc1 [Example 1]; 4.70

Hello, I would appreciate it if you could give pIC50 for each entry below.
1. CC(C)COc1cc(Nc2ccc(S(N)(=O)=O)cc2)n2ncnc2n1 [Example 14]
2. CS(=O)(=O)c1ccc(Nc2cc(Cl)nc3ncnn23)cc1 [Example 18]
3. N#Cc1ccc(Nc2cc(Cl)nc3ncnn23)cc1 [Example 41]
4. NC(=O)c1ccc(Nc2cc(Cl)nc3ncnn23)cc1 [Example 49]

1. 5.73
2. 6.09
3. 4.21
4. 4.62
